B1: EEHEE_rd4_0647 (parent)
chain: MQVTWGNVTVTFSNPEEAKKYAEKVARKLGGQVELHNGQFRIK

- Variants of: B1
- Protocol details: folding stability dG (cDNA display proteolysis); higher = more stable
- Test conditions: PBS, room temperature
Record y whenever folding stability dG is at 2 kcal/mol or higher; record n when lower.

Request: # check: folding stability dG of P15K is greater than or equal to 2 kcal/mol
Response: y
